Items are presented alongside their recorded pKi.
biological target: Human immunodeficiency virus type 1 protease (Human immunodeficiency virus 1, UniProt Q72874)
pKi: −log10 of the molar value.
READOUT LABEL: pKi

* COc1ccc(S(=O)(=O)N(CC(C)C)C[C@@H](O)[C@H](Cc2ccccc2)NC(=O)O[C@@H]2CC[C@@H]3C[C@H]4CO[C@@H](C)[C@@]42O3)cc1 | 7.69
* COc1ccc(S(=O)(=O)N(CC(C)C)C[C@@H](O)[C@H](Cc2ccccc2)NC(=O)O[C@H]2CC[C@H]3C[C@@H]4CO[C@H](c5ccccc5)[C@]42O3)cc1 | 6.37
* COc1ccc(S(=O)(=O)N(CC(C)C)C[C@@H](O)[C@H](Cc2ccccc2)NC(=O)O[C@H]2CC[C@@H]3C[C@H]4CO[C@@H](c5ccccc5)[C@@]42O3)cc1 | 7.37
* COc1ccc(S(=O)(=O)N(CC(C)C)C[C@@H](O)[C@H](Cc2ccccc2)NC(=O)O[C@H]2CC[C@@H]3C[C@H]4CO[C@@H](C)[C@@]42O3)cc1 | 8.78
* COc1ccc(S(=O)(=O)N(CC(C)C)C[C@@H](O)[C@H](Cc2ccccc2)NC(=O)O[C@H]2CC[C@@H]3C[C@H]4CO[C@@H](C(C)C)[C@@]42O3)cc1 | 6.07
* COc1ccc(S(=O)(=O)N(CC(C)C)C[C@@H](O)[C@H](Cc2ccccc2)NC(=O)O[C@@H]2CC[C@@H]3C[C@H]4CO[C@@H](c5ccccc5)[C@@]42O3)cc1 | 5.89
* COc1ccc(S(=O)(=O)N(CC(C)C)C[C@@H](O)[C@H](Cc2ccccc2)NC(=O)O[C@@H]2CC[C@@H]3C[C@H]4CO[C@@H](C(C)C)[C@@]42O3)cc1 | 6.21
* COc1ccc(S(=O)(=O)N(CC(C)C)C[C@@H](O)[C@H](Cc2ccccc2)NC(=O)O[C@@H]2CC[C@H]3C[C@@H]4CO[C@H](c5ccccc5)[C@]42O3)cc1 | 6.57
